For each record, write down the corresponding Neutralization IC50, H2-JP57.
Biological target: HA of ca A/Japan/57 (H2N2) virus (influenza A virus)
Assay: cell-based or functional assay
Numbers only, in µg/mL.

Below are worked cases with known answers.
binder	assayReadout	resultValue
Antibody 13 (antibody, V domains shown) VH: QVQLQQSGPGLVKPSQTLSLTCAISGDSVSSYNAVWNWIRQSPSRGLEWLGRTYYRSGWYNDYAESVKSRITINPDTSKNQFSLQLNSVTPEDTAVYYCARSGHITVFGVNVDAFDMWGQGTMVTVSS VL: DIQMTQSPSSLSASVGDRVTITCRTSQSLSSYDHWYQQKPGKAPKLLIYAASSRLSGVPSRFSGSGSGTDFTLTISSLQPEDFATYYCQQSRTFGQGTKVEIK	Neutralization IC50, H2-JP57	0.47
Antibody 15 (antibody, V domains shown) VH: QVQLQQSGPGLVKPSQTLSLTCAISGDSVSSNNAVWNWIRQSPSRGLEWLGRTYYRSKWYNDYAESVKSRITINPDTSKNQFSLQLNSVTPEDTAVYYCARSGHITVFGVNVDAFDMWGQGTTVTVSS VL: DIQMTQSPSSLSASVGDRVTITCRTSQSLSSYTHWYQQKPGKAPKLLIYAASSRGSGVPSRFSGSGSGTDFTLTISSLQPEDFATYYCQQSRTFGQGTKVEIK	Neutralization IC50, H2-JP57	0.33
Antibody 14 (antibody, V domains shown) VH: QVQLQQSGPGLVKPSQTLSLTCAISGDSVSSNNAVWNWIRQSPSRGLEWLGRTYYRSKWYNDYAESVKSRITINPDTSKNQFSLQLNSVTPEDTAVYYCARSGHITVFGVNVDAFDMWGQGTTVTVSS VL: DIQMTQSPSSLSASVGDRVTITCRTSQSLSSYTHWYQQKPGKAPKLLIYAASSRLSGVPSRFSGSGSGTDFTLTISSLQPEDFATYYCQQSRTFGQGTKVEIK	Neutralization IC50, H2-JP57	0.67
Antibody 11 (antibody, V domains shown) VH: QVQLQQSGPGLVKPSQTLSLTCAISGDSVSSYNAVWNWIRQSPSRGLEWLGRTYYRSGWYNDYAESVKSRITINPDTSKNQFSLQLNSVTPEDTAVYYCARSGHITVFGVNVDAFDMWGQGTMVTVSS VL: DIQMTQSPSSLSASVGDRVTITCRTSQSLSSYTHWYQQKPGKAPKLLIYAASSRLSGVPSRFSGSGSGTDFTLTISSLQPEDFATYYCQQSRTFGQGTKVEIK	Neutralization IC50, H2-JP57	0.31

Next:
## Task Which Neutralization IC50, H2-JP57 is listed for Antibody 12 (antibody, V domains shown) VH: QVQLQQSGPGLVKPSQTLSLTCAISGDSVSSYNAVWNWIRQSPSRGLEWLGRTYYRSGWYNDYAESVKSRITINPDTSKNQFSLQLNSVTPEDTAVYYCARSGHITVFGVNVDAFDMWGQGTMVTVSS VL: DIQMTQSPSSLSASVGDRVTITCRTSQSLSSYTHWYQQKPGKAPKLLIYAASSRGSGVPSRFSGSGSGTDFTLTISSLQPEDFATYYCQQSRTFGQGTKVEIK ?
## Result 0.35
